- ASSAYED_TARGET: DPEP3
- EXPERIMENTAL_PROTOCOL: pooled miR-30 sensor sort-seq; sequence = guide strand; note: reference of the scale not given here
- REPORTED_CONDITIONS: shRNA
RECORDED_ENDPOINT: sensor-assay potency score (higher = more potent)

>  <ITEM_SEQUENCE>
TGAACTTGGTGGAACTCTCTGC

>  <ASSAYED_TARGET>
DPEP3

>  <REPORTED_RESULT>
0.129

$$$$
>  <ITEM_SEQUENCE>
TTGGTGGAACTCTCTGCCCATG

>  <ASSAYED_TARGET>
DPEP3

>  <REPORTED_RESULT>
-1.6

$$$$
>  <ITEM_SEQUENCE>
TTCCACTTGTCTGAAGACCCGC

>  <ASSAYED_TARGET>
DPEP3

>  <REPORTED_RESULT>
-0.394

$$$$
>  <ITEM_SEQUENCE>
AAGCACATTCTTGTAACGCTGT

>  <ASSAYED_TARGET>
DPEP3

>  <REPORTED_RESULT>
0.352

$$$$
>  <ITEM_SEQUENCE>
ATGTGGTGTCTGAACTTGGTGG

>  <ASSAYED_TARGET>
DPEP3

>  <REPORTED_RESULT>
-0.807

$$$$
>  <ITEM_SEQUENCE>
ATTCTTGTAACGCTGTCTCAGG

>  <ASSAYED_TARGET>
DPEP3

>  <REPORTED_RESULT>
-0.648

$$$$
>  <ITEM_SEQUENCE>
TCAACAAATTGTCACACACAGC

>  <ASSAYED_TARGET>
DPEP3

>  <REPORTED_RESULT>
-1.21

$$$$

====

- ASSAYED_TARGET: NPSR1
- EXPERIMENTAL_PROTOCOL: pooled miR-30 sensor sort-seq; sequence = guide strand
- REPORTED_CONDITIONS: shRNA
Record Satisfied whenever sensor-assay potency score (higher = more potent) is at -0.9 or higher; record Not satisfied when lower.

>  <ITEM_SEQUENCE>
TTAAAGGAGTAGTAGAAGGAAC

>  <CATEGORY>
Not satisfied

$$$$
>  <ITEM_SEQUENCE>
TGAATCGCCAATTAATATCTGT

>  <CATEGORY>
Satisfied

$$$$
>  <ITEM_SEQUENCE>
TACCCTTCCAGTTCTCTCGTTG

>  <CATEGORY>
Satisfied

$$$$
>  <ITEM_SEQUENCE>
TTCTTCTTTCTCCTCCATGTGG

>  <CATEGORY>
Satisfied

$$$$
>  <ITEM_SEQUENCE>
TAGCGCAGCCTCCTGGAGCTGA

>  <CATEGORY>
Satisfied

$$$$
>  <ITEM_SEQUENCE>
TAGAGCAGCACAACCTGCAAAT

>  <CATEGORY>
Not satisfied

$$$$
>  <ITEM_SEQUENCE>
TTTGAGATGAGTCCTCGGTTAT

>  <CATEGORY>
Not satisfied

$$$$
>  <ITEM_SEQUENCE>
TTTTAATCCAAATAGTTCGGAT

>  <CATEGORY>
Satisfied

$$$$

====

- ASSAYED_TARGET: JMJD8
- EXPERIMENTAL_PROTOCOL: pooled miR-30 sensor sort-seq; sequence = guide strand
- REPORTED_CONDITIONS: shRNA
Form field: sensor-assay potency score (higher = more potent) (one value per entry).
RECORDED_ENDPOINT: sensor-assay potency score (higher = more potent)

>  <ITEM_SEQUENCE>
TACAGCACCTCACCAGCCCGGA

>  <REPORTED_RESULT>
-0.942

$$$$
>  <ITEM_SEQUENCE>
TATACATAGTTTATGTTCCTGG

>  <REPORTED_RESULT>
-0.256

$$$$
>  <ITEM_SEQUENCE>
TTTGTGGTAGGAGTAGGTGTTG

>  <REPORTED_RESULT>
-1.04

$$$$
>  <ITEM_SEQUENCE>
TTGTGGTAGGAGTAGGTGTTGG

>  <REPORTED_RESULT>
-1.22

$$$$
>  <ITEM_SEQUENCE>
TAGGAGTAGGTGTTGGCGGTGC

>  <REPORTED_RESULT>
0.392

$$$$
>  <ITEM_SEQUENCE>
TTGAGCGTAGCATGCCACCAGC

>  <REPORTED_RESULT>
-0.983

$$$$
>  <ITEM_SEQUENCE>
TAGCATGCCACCAGCGGTCGGG

>  <REPORTED_RESULT>
-0.51

$$$$
>  <ITEM_SEQUENCE>
TATCTGTGTAATAAAATCCGTG

>  <REPORTED_RESULT>
-0.911

$$$$

====

- ASSAYED_TARGET: NDUFA9
- EXPERIMENTAL_PROTOCOL: pooled miR-30 sensor sort-seq; sequence = guide strand
- REPORTED_CONDITIONS: shRNA
Form field: sensor-assay potency score (higher = more potent) (one value per entry).
RECORDED_ENDPOINT: sensor-assay potency score (higher = more potent)

>  <ITEM_SEQUENCE>
TGTGTTGTACTACTCGTCGGAT

>  <REPORTED_RESULT>
-0.517

$$$$
>  <ITEM_SEQUENCE>
TAGAATCTTTATCTCTCGCGTC

>  <REPORTED_RESULT>
-0.0518

$$$$
>  <ITEM_SEQUENCE>
TATAGGACCAAACCGATGCATA

>  <REPORTED_RESULT>
-1.43

$$$$
>  <ITEM_SEQUENCE>
TTGATGACCACATTGCTGTGTT

>  <REPORTED_RESULT>
0.542

$$$$
>  <ITEM_SEQUENCE>
TTAAGGAATCTATCCTCTCTTC

>  <REPORTED_RESULT>
-0.535

$$$$
>  <ITEM_SEQUENCE>
TTTAACTGTCTTCCAGCCCAAG

>  <REPORTED_RESULT>
-1.24

$$$$
>  <ITEM_SEQUENCE>
TTCAACTCCAGCTTCCTTGGAC

>  <REPORTED_RESULT>
0.368

$$$$

====

Form field: sensor-assay potency score (higher = more potent) (one value per entry).
- ASSAYED_TARGET: TPRX1
- EXPERIMENTAL_PROTOCOL: pooled miR-30 sensor sort-seq; sequence = guide strand
- REPORTED_CONDITIONS: shRNA
RECORDED_ENDPOINT: sensor-assay potency score (higher = more potent)

>  <ITEM_SEQUENCE>
TCGGGCTTGGGATCTGAGCTGG

>  <REPORTED_RESULT>
-0.605

$$$$
>  <ITEM_SEQUENCE>
TTTCATTCACAGAGCCACCCTC

>  <REPORTED_RESULT>
-0.302

$$$$
>  <ITEM_SEQUENCE>
TAGGGGTAGGAGCAGCTCTGTG

>  <REPORTED_RESULT>
-1.84

$$$$
>  <ITEM_SEQUENCE>
TGGTGGAGGCTGCAGATCGTGG

>  <REPORTED_RESULT>
-1.98

$$$$
>  <ITEM_SEQUENCE>
TGAACCACACCTGCAGCTGTTG

>  <REPORTED_RESULT>
-0.826

$$$$
>  <ITEM_SEQUENCE>
TTGGAGCTGGGACTGAGCCTGA

>  <REPORTED_RESULT>
-0.894

$$$$

====

Form field: sensor-assay potency score (higher = more potent) (one value per entry).
- ASSAYED_TARGET: EFNB2
- EXPERIMENTAL_PROTOCOL: pooled miR-30 sensor sort-seq; sequence = guide strand
- REPORTED_CONDITIONS: shRNA
RECORDED_ENDPOINT: sensor-assay potency score (higher = more potent)

>  <ITEM_SEQUENCE>
TTAATAGTGCATCTGTCTGCTT

>  <REPORTED_RESULT>
-0.0531

$$$$
>  <ITEM_SEQUENCE>
AATTCTTGAAACTTGATGGTGA

>  <REPORTED_RESULT>
0.644

$$$$
>  <ITEM_SEQUENCE>
TTCTGCACAGTCTTCCAGCTTC

>  <REPORTED_RESULT>
-0.41

$$$$
>  <ITEM_SEQUENCE>
TTTTCCTTCTTAATAGTGCATC

>  <REPORTED_RESULT>
-0.818

$$$$
>  <ITEM_SEQUENCE>
TTGGAAATCGCAGTTCTGCATA

>  <REPORTED_RESULT>
-1.17

$$$$
>  <ITEM_SEQUENCE>
TTGATCCAGCAGAACTTGCATC

>  <REPORTED_RESULT>
-0.768

$$$$
>  <ITEM_SEQUENCE>
ATAGGCTCTAAAACTATCGATT

>  <REPORTED_RESULT>
-0.56

$$$$
>  <ITEM_SEQUENCE>
TATAGTACCAGTCCTTGTCCAG

>  <REPORTED_RESULT>
-0.415

$$$$
>  <ITEM_SEQUENCE>
TATAATATTCATACTGGCCAAC

>  <REPORTED_RESULT>
-1.28

$$$$
>  <ITEM_SEQUENCE>
TAGTGCATCTGTCTGCTTGGTC

>  <REPORTED_RESULT>
0.00867

$$$$
>  <ITEM_SEQUENCE>
TTGTCGAACTTCTTCCATTTGT

>  <REPORTED_RESULT>
-0.423

$$$$
>  <ITEM_SEQUENCE>
TAATAGTGCATCTGTCTGCTTG

>  <REPORTED_RESULT>
0.293

$$$$
>  <ITEM_SEQUENCE>
TTTATCAACCATATAAACTTTA

>  <REPORTED_RESULT>
-0.264

$$$$
>  <ITEM_SEQUENCE>
TTGTTGTCGAACTTCTTCCATT

>  <REPORTED_RESULT>
-1.15

$$$$
>  <ITEM_SEQUENCE>
TTAGCATAGAACCAAAACGTAG

>  <REPORTED_RESULT>
-1.59

$$$$
